Sourced from ChEMBL document CHEMBL4428133

- experimentalSystem: Tyrosyl-DNA phosphodiesterase 1 (Homo sapiens, UniProt Q9NUW8)
- Sequence (Q9NUW8 whole entry): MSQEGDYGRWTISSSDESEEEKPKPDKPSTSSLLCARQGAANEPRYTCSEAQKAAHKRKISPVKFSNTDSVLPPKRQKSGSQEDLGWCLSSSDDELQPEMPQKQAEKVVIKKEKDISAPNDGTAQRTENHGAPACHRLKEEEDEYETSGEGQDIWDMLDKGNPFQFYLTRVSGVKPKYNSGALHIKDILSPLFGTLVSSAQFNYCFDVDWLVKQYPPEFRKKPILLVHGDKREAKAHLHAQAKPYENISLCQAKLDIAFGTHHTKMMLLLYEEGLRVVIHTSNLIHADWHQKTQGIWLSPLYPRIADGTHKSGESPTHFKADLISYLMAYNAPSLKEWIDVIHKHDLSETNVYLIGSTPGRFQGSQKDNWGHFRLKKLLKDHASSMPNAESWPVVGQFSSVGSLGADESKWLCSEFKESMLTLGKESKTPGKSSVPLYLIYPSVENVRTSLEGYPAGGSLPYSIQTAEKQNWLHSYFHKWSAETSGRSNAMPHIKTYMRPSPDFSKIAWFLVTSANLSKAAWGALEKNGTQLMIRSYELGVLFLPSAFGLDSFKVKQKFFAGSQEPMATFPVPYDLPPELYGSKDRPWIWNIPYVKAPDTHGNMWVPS
- experimentNotes: Inhibition of N-terminal His-tagged TDP1 (unknown origin) expressed in Escherichia coli BL21(DE3) using 5'-6-FAM-AGGATCTAAAAGACTT-3BHQ-3' as substrate preincubated for 30 mins followed by substrate addition by fluorescence assay
metric: IC50
# output: number + unit

Lookup: What value of IC50 has been recorded for this entry: `O=C1NC(=S)NC(=O)C1=Cc1ccco1`
Found: 710 nM

---

- experimentalSystem: DNA topoisomerase 1 (Homo sapiens)
- Sequence (P11387 whole entry): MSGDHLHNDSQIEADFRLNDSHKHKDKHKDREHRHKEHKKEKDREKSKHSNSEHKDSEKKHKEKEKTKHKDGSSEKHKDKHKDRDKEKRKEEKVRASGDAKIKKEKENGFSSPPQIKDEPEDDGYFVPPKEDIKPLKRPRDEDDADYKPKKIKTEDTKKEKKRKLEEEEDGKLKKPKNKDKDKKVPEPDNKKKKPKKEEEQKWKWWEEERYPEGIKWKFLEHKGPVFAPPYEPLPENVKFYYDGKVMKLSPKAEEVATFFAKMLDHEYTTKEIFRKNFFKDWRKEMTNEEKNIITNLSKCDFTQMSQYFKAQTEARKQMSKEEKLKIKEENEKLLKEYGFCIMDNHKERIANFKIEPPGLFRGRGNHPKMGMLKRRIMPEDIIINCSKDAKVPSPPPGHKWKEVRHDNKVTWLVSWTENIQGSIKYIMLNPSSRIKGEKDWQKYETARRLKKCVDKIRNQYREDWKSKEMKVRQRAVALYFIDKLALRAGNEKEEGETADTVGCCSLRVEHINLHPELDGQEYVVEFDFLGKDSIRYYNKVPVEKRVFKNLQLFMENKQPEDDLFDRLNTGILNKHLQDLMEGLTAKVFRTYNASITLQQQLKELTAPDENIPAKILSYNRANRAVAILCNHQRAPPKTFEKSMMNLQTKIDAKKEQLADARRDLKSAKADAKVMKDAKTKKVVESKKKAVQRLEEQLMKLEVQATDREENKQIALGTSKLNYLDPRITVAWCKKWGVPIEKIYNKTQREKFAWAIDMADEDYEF
- experimentNotes: Inhibition of topoisomerase-1 (unknown origin) using pBR 322 DNA as substrate
metric: EC50 (nM)
Quick reminder: number only, in nM, skip the unit.

Lookup: What value of EC50 has been recorded for this entry: `O=C1c2c(c3c4cccc(O)c4n([C@@H]4O[C@H](CO)[C@@H](O)[C@H](O)[C@H]4O)c3c3[nH]c4c(O)cccc4c23)C(=O)N1NC(CO)CO`
Found: 580
